system: NCI-H226; assay: NCI tumour cell line growth inhibition, 48 h
Calls of active or inactive are those of the source. Rule as the data show it: active = GI50 up to about 1.1 µM and inactive = higher.
VALUE_KIND: GI50

Reference set, count: 7
- COMPOUND: "CCOC(=O)c1sc2c(sc(=O)n2-c2ccccc2)c1O"
  GI50: "> 100 µM (inactive)"
- COMPOUND: "O=c1cc(NNc2ccc(F)cc2)[nH]c(=O)[nH]1"
  GI50: "24.6 µM (inactive)"
- COMPOUND: "CC1(C)/C(=N\\Nc2ccc([N+](=O)[O-])cc2[N+](=O)[O-])C2CCC1C2 (stereo not drawn)"
  GI50: "> 100 µM (inactive)"
- COMPOUND: "CC(=O)OCC1OC(n2c(-c3cccs3)c3c(c(C#N)c2=S)-c2ccccc2CC3)C(OC(C)=O)C(OC(C)=O)C1OC(C)=O (stereo not drawn)"
  GI50: "28.4 µM (inactive)"
- COMPOUND: "Cc1cccc(C(O)c2ccncc2)c1O (stereo not drawn)"
  GI50: "> 100 µM (inactive)"
- COMPOUND: "CC(C)c1cccc(C(C)C)c1/N=C(/N)C#N"
  GI50: "> 100 µM (inactive)"
- COMPOUND: "NCCCOCC(=O)O"
  GI50: "> 100 µM (inactive)"

Could you now consider this next compound?
Task item: Sample CC(C)(C)OC(=O)N(CCCCN(CCCNC(=O)C(F)(F)F)C(=O)OC(C)(C)C)CCCNC(=O)C(F)(F)F — what was its GI50?
Reply: > 100 µM (inactive)

----------
system: PC-3; assay: NCI tumour cell line growth inhibition, 48 h
Calls of active or inactive are those of the source. No stated cut-off is given here; in the data, active = GI50 up to about 1.1 µM and inactive = higher.
Can you answer with just one of these options? active, inactive

- COMPOUND: "Cc1ccc(/N=C2N=C(Cl)/C(=C\\c3ccccc3)N\\2)cc1"
  CATEGORY: "inactive"
- COMPOUND: "CC(C)c1c(P(=O)(c2ccccc2)c2ccccc2)n(C)c2ccccc12"
  CATEGORY: "inactive"
- COMPOUND: "C=C1C(O)C23CCC4C(C(=O)O)(C(=O)O)CC(OC5OC(CO)C(O)C(OC(=O)CCc6ccccc6)C5NC(=O)CC(C)C)CC4(C)C2CCC1(O)C3 (configuration not stated)"
  CATEGORY: "inactive"

Task item: What was the test verdict on CC1CC/C(=C\c2ccc(Cl)cc2)C2OC(N)=C(C#N)C(c3ccc(Cl)cc3)=C12 (configuration not stated) ?
Reply: inactive

Task item: Try this compound next: CCOc1ccc2nc(NC(=O)C(=O)C3C(=O)C(CC4C(=O)c5ccccc5C4=O)C(=O)CC3(C)C)sc2c1 (configuration not stated)
Reply: inactive

Task item: Then COc1cc2c(cc1OC)[C@H]1C(=O)c3cc4c(cc3[C@H]1N(C)C2=O)OCO4 ?
Reply: inactive

Task item: Further, for CCn1c2ccccc2c2cc(NC(=O)c3c(C)nc(O)nc3NCCNCCO)ccc21 ?
Reply: inactive

Task item: Another compound to look at: CCOP(=O)(OCC)C(C(=O)OC)C(=O)C(=O)Nc1cccc(O)c1 (configuration not stated)
Reply: inactive

Task item: Now consider CC1OC(O[C@H]2CC[C@]3(C=O)[C@H]4CC[C@]5(C)[C@H](C6=CC(=O)OC6)CC[C@]5(O)[C@@H]4C=C[C@]3(O)C2)CC(O)C1O (some centres not stated) .
Reply: active

Task item: Now this one: CC1=C(C)[C@@]2(C)O[C@@]2(C)O[C@@]2(C)O[C@@]12C
Reply: inactive
